EXPERIMENTAL_DETAILS: In vitro cytotoxicity assay, IncuCyte S3 live-cell analysis
Format: cell-based
CONDITION_INFO: human, HeLa cells (cervical adenocarcinoma), phase confluence (%), 72-h period
ENDPOINT_LABEL: IC50 at 72 h (µg/mL)

> print(dat)
                                   compound   val
1  Cc1cccc(NC(=O)ON=C2c3ccccc3-c3ccccc32)c1 [Compound 1b]   8.5
2  O=C(Nc1ccccc1)ON=C1c2ccccc2-c2ccccc21 [Compound 1a, 9-(phenylcarbamoyloxymino)fluoren]  7.52
3  O=C(Nc1cccc(Cl)c1)ON=C1c2ccccc2-c2ccccc21 [Compound 1c]   8.9
4  O=C(Nc1ccc(Cl)c(Cl)c1)ON=C1c2ccccc2-c2ccccc21 [Compound 1d]  7.59
